- Target or system: BACE1 (Homo sapiens, UniProt P56817)
- Sequence (P56817 46-501): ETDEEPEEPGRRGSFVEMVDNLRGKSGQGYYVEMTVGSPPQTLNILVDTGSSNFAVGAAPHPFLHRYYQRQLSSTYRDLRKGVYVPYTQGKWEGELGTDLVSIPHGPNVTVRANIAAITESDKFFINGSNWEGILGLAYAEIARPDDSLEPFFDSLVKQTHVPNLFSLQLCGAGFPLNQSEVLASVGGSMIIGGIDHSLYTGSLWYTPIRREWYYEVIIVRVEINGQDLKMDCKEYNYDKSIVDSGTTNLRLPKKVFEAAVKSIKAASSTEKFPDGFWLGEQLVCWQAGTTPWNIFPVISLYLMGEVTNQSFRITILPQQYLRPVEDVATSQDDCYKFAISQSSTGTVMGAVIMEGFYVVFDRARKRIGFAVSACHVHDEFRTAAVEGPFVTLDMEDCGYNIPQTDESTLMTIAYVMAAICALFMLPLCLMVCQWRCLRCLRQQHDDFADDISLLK
pIC50: −log10 of the molar value. Square brackets hold non-standard residues; d marks the D form. Peptide text beside a SMILES is read from it. * marks the point of attachment. Sta = CC(C)C[C@H](N)[C@@H](O)CC(=O)O; Palmitoyl = CCCCCCCCCCCCCCCC(=O)*
Parameter: pIC50

# Molecule, Target or system, Parameter, Observed measurement
data = [
    ("CCCCCCCCCCCCCCCC(=O)NCCCC[C@H](NC(=O)[C@H]1CCCN1C(=O)[C@H](CCC(=O)O)NC(=O)[C@H](C)NC(=O)[C@@H](NC(=O)C[C@H](O)[C@H](CC(C)C)NC(=O)[C@H](CC(N)=O)NC(=O)[C@@H](NC(=O)[C@@H](N)CCC(=O)O)C(C)C)C(C)C)C(N)=O [Pep#4] (H-EVN[Sta]VAE[dP]K(Palmitoyl)-NH2; N-terminus assumed)", "BACE1 (Homo sapiens, UniProt P56817)", "pIC50", 8.22),
]

###

- Target or system: BACE1 (Homo sapiens)
- Experimental details: Cell-based Aβ lowering IC50 assay

# Substance, IC50
data = [
    ("Ac-YPYFLPISAK-NH2 [Pep#6, reference compound]", "> 40 µM"),
]

###

- Target or system: UniProt:P56817
Square brackets hold non-standard residues; d marks the D form. Peptide text beside a SMILES is read from it. * marks the point of attachment. Succinyl(4-O-cholesteryl) = CC(C)CCC[C@@H](C)[C@H]1CC[C@H]2[C@@H]3CC=C4C[C@@H](OC(=O)CCC(=O)*)CC[C@]4(C)[C@H]3CC[C@]12C; Sta = CC(C)C[C@H](N)[C@@H](O)CC(=O)O
Catalogue of compounds with associated IC50
Parameter: IC50

# Compound, Target or system, Parameter, Observed measurement
data = [
    ("CC(C)CCC[C@@H](C)[C@H]1CC[C@H]2[C@@H]3CC=C4C[C@@H](OC(=O)CCC(=O)NCCCC[C@H](NC(=O)[C@H]5CCCN5C(=O)[C@H](CCC(=O)O)NC(=O)[C@H](C)NC(=O)[C@@H](NC(=O)C[C@H](O)[C@H](CC(C)C)NC(=O)[C@H](CC(N)=O)NC(=O)[C@@H](NC(=O)[C@@H](N)CCC(=O)O)C(C)C)C(C)C)C(N)=O)CC[C@]4(C)[C@H]3CC[C@]12C [Pep#3] (H-EVN[Sta]VAE[dP]K(Succinyl(4-O-cholesteryl))-NH2; N-terminus assumed)", "UniProt:P56817", "IC50", "0.0004 µM"),
    ("CC(C)C[C@H](NC(=O)[C@H](CC(N)=O)NC(=O)[C@@H](NC(=O)[C@@H](N)CCC(=O)O)C(C)C)[C@@H](O)CC(=O)N[C@H](C(=O)N[C@@H](C)C(=O)N[C@@H](CCC(=O)O)C(=O)N1CCC[C@@H]1C(N)=O)C(C)C [Pep#1, Glu-Val-Asn-Sta-Val-Ala-Glu-DPro-NH2] (H-EVN[Sta]VAE[dP]-NH2; N-terminus assumed)", "UniProt:P56817", "IC50", "> 40 µM"),
    ("CC(C)C[C@H](NC(=O)[C@H](CC(N)=O)NC(=O)[C@@H](NC(=O)[C@@H](N)CCC(=O)O)C(C)C)[C@@H](O)CC(=O)N[C@H](C(=O)N[C@@H](C)C(=O)N[C@@H](CCC(=O)O)C(=O)N1CCC[C@@H]1C(=O)N[C@@H](CCCCN)C(N)=O)C(C)C [Pep#2, Glu-Val-Asn-Sta-Val-Ala-Glu-DPro-Lys-NH2] (H-EVN[Sta]VAE[dP]K-NH2; N-terminus assumed)", "UniProt:P56817", "IC50", "> 40 µM"),
    ("CC[C@H](C)[C@H](NC(=O)[C@H](Cc1ccccc1)NC(=O)[C@H](Cc1ccc(O)cc1)NC(=O)[C@@H]1CCCN1C(=O)[C@H](Cc1ccc(O)cc1)NC(C)=O)C(=O)N1CCC[C@H]1C(=O)N[C@@H](CC(C)C)C(N)=O", "UniProt:P56817", "IC50", "> 40 µM"),
]

Entry source: paper PMC5652008
